// provenance: patent US11512079B2

Test system: Aspergillus fumigatus MYA3626
Test: In vitro antifungal assay (Example IX), microdilution broth, MEC
Assay type: cell-based
Conditions: minimum effective concentration (shortening of hyphae), 35° C., 40-48 h, RPMI1640
recordedEndpoint: minimal effective concentration

• Nc1ncccc1-c1cc(Cc2ccc(COc3ccc(Cl)c4ccccc34)cc2)no1 = > 1 µg/mL
• CCCc1cccc(OCc2ccc(Cc3cc(-c4cccnc4N)on3)cc2)c1 = 0.1 to 1 µg/mL
• Nc1ncccc1-c1cc(Cc2ccc(OCc3nccs3)cc2)no1 = 0.01 to 0.1 µg/mL
• Nc1ncccc1-c1cc(Cc2ccc(OCc3ccccc3)cc2)no1 = 0.1 to 1 µg/mL
• Nc1ncccc1-c1cc(Cc2ccnc(OCC3CC3)c2)no1 = 0.1 to 1 µg/mL
• Nc1ncccc1-c1cc(Cc2ccc(OCCc3ccccc3F)nc2)no1 = 0.1 to 1 µg/mL
• Nc1ncccc1-c1cc(Cc2ccc(Oc3ncc(F)cc3F)cc2)no1 = 0.01 to 0.1 µg/mL
• Nc1ncccc1-c1cc(Cc2ccc(/C=C/Cc3ccccc3)cc2)no1 = 0.1 to 1 µg/mL
• Nc1ncccc1-c1cc(Cc2ccc(OCc3ncccn3)cc2)no1 = 0.1 to 1 µg/mL
